- Test system: pigweed
- ASSAY_OVERVIEW: Test B pre/postemergence pigweed
- Assay type: in vivo, Amaranthus retroflexus
- STUDY_CONDITIONS: Preemergence, Rate 500 g/ha; scale of 0 to 10 where 0 is no effect and 10 is complete control
- Procedure: […] At the same time, these crop and weed species were also treated with postemergence applications of test chemicals formulated in the same manner. […] Treated plants and controls were maintained in a greenhouse for twelve to sixteen days, after which all species were compared to controls and visually evaluated. […]
Recorded Plant response rating, Redroot pigweed for the following compounds

| COMPOUND | Plant response rating, Redroot pigweed |
| --- | --- |
| Cc1cccc(C)c1-n1c(=O)on(C(=O)N(C(C)C)C2C=CCCC2)c1=O (centres unmarked) | 0 |
| C=CCn1c(=O)on(C(=O)N(c2ccc(F)cc2)C2CCCCCC2)c1=O | 0 |
| Cc1ccccc1-n1c(=O)on(C(=O)N(c2ccc3c(c2)CCC3)C(C)C)c1=O | 0 |
| CC(C)N(C(=O)n1oc(=O)n(CCF)c1=O)c1ccc(F)cc1F | 10 |
| CC(C)N(C(=O)n1oc(=O)n(-c2cccnc2)c1=O)c1ccccc1 | 0 |
| CCOC(=O)C=CCn1c(=O)on(C(=O)N(c2ccc(F)cc2)C(C)C)c1=O | 9 |
| CC(C)N(C(=O)n1oc(=O)n(Cc2ccco2)c1=O)c1ccc(Cl)cc1 | 3 |
| CC(C)N(C(=O)n1oc(=O)n([C@H](C)c2ccccc2)c1=O)c1ccc(F)cc1F | 9 |

----------
- Tested on: blackgrass
- ASSAY_OVERVIEW: Test B pre/postemergence blackgrass
- Format: in vivo, Alopecurus myosuroides
- STUDY_CONDITIONS: Rate 250 g/ha, Postemergence; scale of 0 to 10 where 0 is no effect and 10 is complete control
Recorded Plant response rating, Blackgrass for the following molecules

| MOLECULE | Plant response rating, Blackgrass |
| --- | --- |
| CC(C)N(C(=O)n1oc(=O)n(C2CCCCCC2)c1=O)c1ccc(F)cc1F | 2 |
| CC(C)N(C(=O)n1oc(=O)n(CCCCF)c1=O)c1ccc(Cl)cc1 | 7 |
| Cc1cccc(C(C)(C)C)c1-n1c(=O)on(C(=O)N(c2ccc(F)cc2)C(C)C)c1=O | 0 |
| CC(C)N(C(=O)n1oc(=O)n(C2CCCO2)c1=O)c1ccc(F)cc1 (stereo not drawn) | 0 |
| CCN(C(=O)n1oc(=O)n(Cc2ccco2)c1=O)C1CCCCC1 | 0 |
| CC(C)N(C(=O)n1oc(=O)n(C2CCCC2)c1=O)c1ccccc1 | 7 |

----------
- Test system: rape
- ASSAY_OVERVIEW: Test B pre/postemergence rape
- Type: in vivo, Brassica napus
- STUDY_CONDITIONS: Preemergence, Rate 500 g/ha; scale of 0 to 10 where 0 is no effect and 10 is complete control
Recorded Rape plant response rating for the following compounds

| CPD_SMILES | MEASUREMENT_TARGET | Rape plant response rating |
| --- | --- | --- |
| CC(C)N(C(=O)n1oc(=O)n(CCC(F)(F)F)c1=O)c1ccccc1 | rape | 4 |
| CC(C)N(C(=O)n1oc(=O)n(Cc2nnsc2Cl)c1=O)c1ccccc1 | rape | 0 |
| CCN(C(=O)n1oc(=O)n(Cc2ccco2)c1=O)C1CCCCC1 | rape | 0 |
